Species on record: Cavia porcellus
method.summary: Ability to inhibit histamine-induced contractions of isolated guinea pig ileum at 10e-5 M
Assay type: functional
Threshold check on inhibition at 10 µM: at or above 7% gives y, strictly below gives n.

Solved entries (count: 3):
q: Dear colleague, could you confirm whether `Cc1ccnc(N2CCN(CCc3c(-c4ccc(O)cc4)n4c5c(cccc35)CCC4)CC2)c1` has inhibition at 10 µM at or above 7%?
a: y

q: Answer whether inhibition at 10 µM of `Cc1ccnc(N2CCN(CCc3c(C)n4c5c(cc(CC6CCCCC6)cc35)CCC4)CC2)c1` is greater than or equal to 7%.
a: y

q: Form field: inhibition at 10 µM at least 7%? Entry: `COc1ccc(-c2c(CCN3CCN(c4cc(C)ccn4)CC3)c3cccc4c3n2CCC4)cc1`
a: y

Then there is this compound:
q: API: above_or_equal(metric=inhibition at 10 µM, cutoff=7%) for item `Cc1ccnc(N2CCN(CCc3c(-c4ccc(Cl)cc4)n4c5c(cccc35)CCC4)CC2)c1`
a: n

###

Organism: Cavia porcellus
method.summary: Ability to inhibit histamine-induced contractions of isolated guinea pig ileum at 10e-5 M
Type: functional
reported.endpoint: inhibition at 10 µM (%)
Only the number, expressed in %, is required.

Sample records with inhibition at 10 µM:
q: # input compound: `COc1ccc(N2CCN(CCc3c(C)n4c5c(cccc35)CCC4)CC2)cc1` ; wanted: its inhibition at 10 µM
a: 9

q: Find the recorded inhibition at 10 µM belonging to CCCCCCCC1CCc2cccc3c(CCN4CCN(c5cc(C)ccn5)CC4)c(C)n1c23 (stereo not given) and report it.
a: 50

q: Item under review: `Cc1ccnc(N2CCN(CCc3c(-c4ccccc4)n4c5c(cccc35)CCC4)CC2)c1` . Reported inhibition at 10 µM?
a: 24

q: What value of inhibition at 10 µM has been reported for the following compound? `Cc1ccnc(N2CCN(CCc3c(-c4ccc(F)cc4)n4c5c(cccc35)CCC4)CC2)c1`
a: 3

Okay, next one:
q: Could you share which inhibition at 10 µM value was measured for Cc1ccnc(N2CCN(CCc3c(C)n4c5c(cccc35)CCC4C3CCCCC3)CC2)c1 (stereo not given) ?
a: 50

###

study.target: Polyunsaturated fatty acid 5-lipoxygenase (Homo sapiens) (UniProt P09917)
Sequence (P09917 whole entry): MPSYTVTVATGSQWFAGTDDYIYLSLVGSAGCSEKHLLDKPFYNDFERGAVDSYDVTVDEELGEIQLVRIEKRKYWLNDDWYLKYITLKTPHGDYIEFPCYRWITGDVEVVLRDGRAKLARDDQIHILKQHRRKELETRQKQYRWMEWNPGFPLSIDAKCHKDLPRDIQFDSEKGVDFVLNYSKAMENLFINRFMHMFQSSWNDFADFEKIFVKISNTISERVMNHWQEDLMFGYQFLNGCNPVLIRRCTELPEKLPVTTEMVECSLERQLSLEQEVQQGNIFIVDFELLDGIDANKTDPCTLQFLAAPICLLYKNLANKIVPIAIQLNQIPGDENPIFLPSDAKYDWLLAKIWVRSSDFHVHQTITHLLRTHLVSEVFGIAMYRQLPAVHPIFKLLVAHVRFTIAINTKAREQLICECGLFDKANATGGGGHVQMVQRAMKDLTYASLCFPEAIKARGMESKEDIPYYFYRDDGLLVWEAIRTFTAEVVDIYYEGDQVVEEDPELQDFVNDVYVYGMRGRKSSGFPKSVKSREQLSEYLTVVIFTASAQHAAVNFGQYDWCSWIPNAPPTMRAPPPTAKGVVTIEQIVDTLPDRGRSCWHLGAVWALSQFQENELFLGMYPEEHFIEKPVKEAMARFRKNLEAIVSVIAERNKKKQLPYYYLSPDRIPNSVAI
method.summary: Inhibitory activity uM
cond: Cavia porcellus; concentration not given here
Classification field: enter yes (1) for inhibition values not below 20%, no (0) for values below it.

These solved cases illustrate the format of a correct answer.
q: Test whether the compound `COc1cc2c3c(c1)c(CCN1CCN(c4cc(C)ccn4)CC1)c(C)n3CCC2` records inhibition of 20% or higher.
a: no (0)

q: Hi team, for CCCCC1CCc2cccc3c(CCN4CCN(c5cc(C)ccn5)CC4)c(C)n1c23 (stereo unspecified) , is the recorded inhibition at or above 20%?
a: yes (1)

q: Check if inhibition >= 20% (inclusive). Item: Cc1ccnc(N2CCN(CCc3c(C)n4c5c(cc(C(O)C(C)C)cc35)CCC4)CC2)c1 (stereo unspecified)
a: no (0)

Others:
q: Evaluate `Cc1ccnc(N2CCN(CCc3c(C)n4c5c(cc(C(=O)C6CCCCC6)cc35)CCC4)CC2)c1` : inhibition at minimum 20%?
a: yes (1)

q: Is inhibition for `Cc1ccnc(N2CCN(CCc3c(C)n4c5c(cc(C(=O)C(C)(C)C)cc35)CCC4)CC2)c1` at or above 20%?
a: yes (1)

###

Species on record: Rattus norvegicus
method.summary: Inhibition of cutaneous histamine reaction in rats.
Format: functional
Reported ED50 by item:
Please respond with the number in µmol/kg and leave the unit unwritten.

Worked set:
q: If you can, please state the reported ED50 value of `COc1cc2c3c(c1)c(CCN1CCN(c4cc(C)ccn4)CC1)c(C)n3CCC2` .
a: 0.7

q: Need ED50 of CN1CCC(=C2c3ccccc3CC(=O)c3sccc32)CC1 [KETOTIFEN] , thanks.
a: 0.16

q: I am curious: what ED50 value has been reported for CCCCC1CCc2cc(OC)cc3c(CCN4CCN(c5cc(C)ccn5)CC4)c(C)n1c23 (stereo unspecified) ?
a: 0.9

q: # input molecule: Cc1ccnc(N2CCN(CCc3c(C)n4c5c(cccc35)CCC4C)CC2)c1 (stereo unspecified) ; wanted: its ED50
a: 2.6

q: Data request, read-out ED50, for `Cc1ccnc(N2CCN(CCc3c(C)n4c5c(cc(C(=O)C(C)(C)C)cc35)CCC4)CC2)c1`
a: 3.3

Continuing:
q: Value lookup for ED50; key = `Cc1ccnc(N2CCN(CCc3c(C)n4c5c(cc(O)cc35)CCC4)CC2)c1`
a: 6

###

Species on record: Rattus norvegicus
method.summary: Inhibition of cutaneous histamine reaction in rats.
Type: functional
Please respond with class 1 when measured ED50 is strictly beneath 3 µmol/kg, and with class 0 in all other cases.

q: Input CCCCC1CCc2cc(C(=O)C(C)C)cc3c(CCN4CCN(c5cc(C)ccn5)CC4)c(C)n1c23 (stereo not given) ; condition: ED50 strictly below 3 µmol/kg. Does it hold?
a: class 0

q: Say whether its ED50 is strictly beneath 3 µmol/kg. Entry: Cc1ccnc(N2CCN(CCc3c(C)n4c5c(cc(C(O)C(C)C)cc35)CCC4)CC2)c1 (stereo not given)
a: class 1

Continuing:
q: Just wondering, is ED50 of `Cc1ccnc(N2CCN(CCc3c(C)n4c5c(cccc35)CCC4)CC2)c1` below 3 µmol/kg?
a: class 0

q: Could you please tell me whether ED50 recorded for `CC(C)=Cc1cc2c3c(c1)c(CCN1CCN(c4cc(C)ccn4)CC1)c(C)n3CCC2` is less than 3 µmol/kg?
a: class 0

q: Consider the molecule CCCCC1CCc2cc(O)cc3c(CCN4CCN(c5cc(C)ccn5)CC4)c(C)n1c23 (stereo not given) . Is its ED50 strictly less than 3 µmol/kg?
a: class 1

###

study.target: Polyunsaturated fatty acid 5-lipoxygenase (Homo sapiens)
method.summary: Inhibitory activity uM
cond: Cavia porcellus; concentration not given here
reported.endpoint: inhibition

q: Any idea what inhibition came out for `CC(C)=Cc1cc2c3c(c1)c(CCN1CCN(c4cc(C)ccn4)CC1)c(C)n3CCC2` on Polyunsaturated fatty acid 5-lipoxygenase (Homo sapiens)?
a: 41%

More entries:
q: Tell me reported inhibition for CCCCC1CCc2cc(OC)cc3c(CCN4CCN(c5cc(C)ccn5)CC4)c(C)n1c23 (centres undefined) , tested with Polyunsaturated fatty acid 5-lipoxygenase (Homo sapiens).
a: 50%

q: Short answer please: inhibition, Polyunsaturated fatty acid 5-lipoxygenase (Homo sapiens), entry Cc1ccnc(N2CCN(CCc3c(C)n4c5c(cccc35)CCC4c3ccccc3)CC2)c1 (centres undefined)
a: 17%

q: Notebook: pull reported inhibition for Polyunsaturated fatty acid 5-lipoxygenase (Homo sapiens), entry `Cc1ccnc(N2CCN(CCc3c(C)n4c5c(cc(NC(=O)c6ccccc6)cc35)CCC4)CC2)c1`
a: 40%

q: Give the reported inhibition for `CC(=O)c1cc2c3c(c1)c(CCN1CCN(c4cc(C)ccn4)CC1)c(C)n3CCC2` (system: Polyunsaturated fatty acid 5-lipoxygenase (Homo sapiens)).
a: 48%

q: Lab request: please report inhibition under test system Polyunsaturated fatty acid 5-lipoxygenase (Homo sapiens) for Cc1ccnc(N2CCN(CCc3c(C)n4c5c(cccc35)CCC4C)CC2)c1 (centres undefined)
a: 19%

q: Record lookup: for Polyunsaturated fatty acid 5-lipoxygenase (Homo sapiens), what inhibition belongs to CCCCC1CCc2cc(C(=O)C(C)C)cc3c(CCN4CCN(c5cc(C)ccn5)CC4)c(C)n1c23 (centres undefined) ?
a: 50%

q: Value wanted: inhibition (Polyunsaturated fatty acid 5-lipoxygenase (Homo sapiens)) of entry CCCCC1CCc2cc(O)cc3c(CCN4CCN(c5cc(C)ccn5)CC4)c(C)n1c23 (centres undefined)
a: 100%

q: Lab request: please report inhibition under test system Polyunsaturated fatty acid 5-lipoxygenase (Homo sapiens) for `Cc1ccnc(N2CCN(CCc3c(C)n4c5c(cccc35)CCC4)CC2)c1`
a: 0%

###

# reported ED50; entries follow
Organism: Rattus norvegicus
method.summary: Inhibition of cutaneous histamine reaction in rats.
Assay type: functional
Value and unit, in that order.

q: Consider the molecule shown here: CN1CCCC(n2nc(Cc3ccc(Cl)cc3)c3ccccc3c2=O)CC1 (centres undefined) What is its recorded ED50?
a: 3.3 µmol/kg

q: // lookup ED50 for `Cc1ccnc(N2CCN(CCc3c(C)n4c5c(cc(N)cc35)CCC4)CC2)c1`
a: 2.5 µmol/kg

q: Requested field: ED50. Item: `Cc1ccnc(N2CCN(CCc3c(C)n4c5c(cc(CC(C)C)cc35)CCC4)CC2)c1`
a: 5.1 µmol/kg

q: What does the record list as ED50 for `Cc1ccnc(N2CCN(CCc3c(C)n4c5c(cc(C(=O)C(C)C)cc35)CCC4)CC2)c1` ?
a: 2.9 µmol/kg

q: Dear colleague, I am looking for the recorded ED50 of the following molecule: `Cc1ccnc(N2CCN(CCc3c(C)n4c5c(cc(NC(=O)c6ccccc6)cc35)CCC4)CC2)c1`
a: 3 µmol/kg

q: // ED50 lookup, key: CCCCC1CCc2cccc3c(CCN4CCN(c5cc(C)ccn5)CC4)c(C)n1c23 (centres undefined)
a: 2.1 µmol/kg

q: Data request, read-out ED50, for Cc1ccnc(N2CCN(CCc3c(C)n4c5c(cccc35)CCC4c3ccccc3)CC2)c1 (centres undefined)
a: 2.9 µmol/kg

q: Any idea what ED50 was measured for `Cc1ccnc(N2CCN(CCc3c(C)n4c5c(cc(C(=O)C6CCCCC6)cc35)CCC4)CC2)c1` ?
a: 2.9 µmol/kg

Moving on to the next molecule.
q: Name the recorded ED50 for `CC(=O)c1cc2c3c(c1)c(CCN1CCN(c4cc(C)ccn4)CC1)c(C)n3CCC2` .
a: 2 µmol/kg
